Field: relative viability. Provide a value for each of the compounds that follow.
# Test system: HARA
# Assay: relative viability (nuclei count vs DMSO), 5 days (fraction); higher = more cells survive
# Run conditions: first compound 0.08 µM
Answers are plain numbers.

Example compounds with recorded relative viability:
>>> obs_value("O=c1cc(-c2cccc3c2Sc2ccccc2S3)oc(N2CCOCC2)c1 + NC(=O)Nc1cc(-c2cccc(F)c2)sc1C(=O)N[C@H]1CCCNC1 [AZD7762] (partner 0.2 µM)")
0.234
>>> obs_value("COc1nc(C)cnc1NS(=O)(=O)c1cccnc1-c1ccc(-c2nnco2)cc1 [Zibotentan] + Cc1nc(Nc2ncc(C(=O)Nc3c(C)cccc3Cl)s2)cc(N2CCN(CCO)CC2)n1 [Dasatinib] (partner 0.075 µM)")
0.239
>>> obs_value("COc1nc(C)cnc1NS(=O)(=O)c1cccnc1-c1ccc(-c2nnco2)cc1 [Zibotentan] + CC(=O)Nc1cccc(-n2c(=O)n(C3CC3)c(=O)c3c(Nc4ccc(I)cc4F)n(C)c(=O)c(C)c32)c1 [Trametinib] (partner 0.02 µM)")
0.996
>>> obs_value("O=c1cc(-c2cccc3c2Sc2ccccc2S3)oc(N2CCOCC2)c1 + COc1cccc2cc(-c3nc([C@H]4CC[C@H](C(=O)O)CC4)n4ncnc(N)c34)[nH]c12 [OSI-027] (partner 0.5 µM)")
0.458
>>> obs_value("O=c1cc(-c2cccc3c2Sc2ccccc2S3)oc(N2CCOCC2)c1 + CC(C)C[C@H](NC(=O)[C@H](Cc1ccccc1)NC(=O)c1cnccn1)B(O)O [Bortezomib] (partner 0.002 µM)")
1.09

Fill in relative viability for each of the 4 compounds listed.
1. COc1nc(C)cnc1NS(=O)(=O)c1cccnc1-c1ccc(-c2nnco2)cc1 [Zibotentan] + COc1cccc2cc(-c3nc([C@H]4CC[C@H](C(=O)O)CC4)n4ncnc(N)c34)[nH]c12 [OSI-027] (partner 0.5 µM)
2. COc1nc(C)cnc1NS(=O)(=O)c1cccnc1-c1ccc(-c2nnco2)cc1 [Zibotentan] + Nc1nc2[nH]cc(CCc3ccc(C(=O)N[C@@H](CCC(=O)O)C(=O)O)cc3)c2c(=O)[nH]1 [Pemetrexed] (partner 0.2 µM)
3. O=c1cc(-c2cccc3c2Sc2ccccc2S3)oc(N2CCOCC2)c1 + Cc1nc(NC(=O)N2CCC[C@H]2C(N)=O)sc1-c1ccnc(C(C)(C)C(F)(F)F)c1 [Alpelisib] (partner 2 µM)
4. COc1nc(C)cnc1NS(=O)(=O)c1cccnc1-c1ccc(-c2nnco2)cc1 [Zibotentan] + N=C(N)NC(=N)NCCc1ccccc1 [Phenformin] (partner 250 µM)

[0.42, 0.247, 0.754, 0.462]

====

For each entry below, report its relative viability value.
# System: LC-2-ad
# Assay: relative viability (nuclei count vs DMSO), 5 days (fraction); higher = more cells survive
# Run conditions: first compound 0.3162 µM
Numbers only.

>>> obs_value("O=c1cc(N2CCOCC2)oc2c(-c3cccc4c3sc3ccccc34)cccc12 + Cc1cc(Nc2cc(N3CCN(C)CC3)nc(Sc3ccc(NC(=O)C4CC4)cc3)n2)n[nH]1 [Tozasertib] (partner 0.1 µM)")
0.443

Which relative viability value is on record for O=c1cc(N2CCOCC2)oc2c(-c3cccc4c3sc3ccccc34)cccc12 + CCNC(=O)c1noc(-c2cc(C(C)C)c(O)cc2O)c1-c1ccc(CN2CCOCC2)cc1 [Luminespib] (partner 0.01 µM) ?
1.03

Provenance of the data: the supplement of paper PMC10307832
